subject.of.test: Sodium channel protein type 5 subunit alpha (Homo sapiens)
Sequence (Q14524 whole entry): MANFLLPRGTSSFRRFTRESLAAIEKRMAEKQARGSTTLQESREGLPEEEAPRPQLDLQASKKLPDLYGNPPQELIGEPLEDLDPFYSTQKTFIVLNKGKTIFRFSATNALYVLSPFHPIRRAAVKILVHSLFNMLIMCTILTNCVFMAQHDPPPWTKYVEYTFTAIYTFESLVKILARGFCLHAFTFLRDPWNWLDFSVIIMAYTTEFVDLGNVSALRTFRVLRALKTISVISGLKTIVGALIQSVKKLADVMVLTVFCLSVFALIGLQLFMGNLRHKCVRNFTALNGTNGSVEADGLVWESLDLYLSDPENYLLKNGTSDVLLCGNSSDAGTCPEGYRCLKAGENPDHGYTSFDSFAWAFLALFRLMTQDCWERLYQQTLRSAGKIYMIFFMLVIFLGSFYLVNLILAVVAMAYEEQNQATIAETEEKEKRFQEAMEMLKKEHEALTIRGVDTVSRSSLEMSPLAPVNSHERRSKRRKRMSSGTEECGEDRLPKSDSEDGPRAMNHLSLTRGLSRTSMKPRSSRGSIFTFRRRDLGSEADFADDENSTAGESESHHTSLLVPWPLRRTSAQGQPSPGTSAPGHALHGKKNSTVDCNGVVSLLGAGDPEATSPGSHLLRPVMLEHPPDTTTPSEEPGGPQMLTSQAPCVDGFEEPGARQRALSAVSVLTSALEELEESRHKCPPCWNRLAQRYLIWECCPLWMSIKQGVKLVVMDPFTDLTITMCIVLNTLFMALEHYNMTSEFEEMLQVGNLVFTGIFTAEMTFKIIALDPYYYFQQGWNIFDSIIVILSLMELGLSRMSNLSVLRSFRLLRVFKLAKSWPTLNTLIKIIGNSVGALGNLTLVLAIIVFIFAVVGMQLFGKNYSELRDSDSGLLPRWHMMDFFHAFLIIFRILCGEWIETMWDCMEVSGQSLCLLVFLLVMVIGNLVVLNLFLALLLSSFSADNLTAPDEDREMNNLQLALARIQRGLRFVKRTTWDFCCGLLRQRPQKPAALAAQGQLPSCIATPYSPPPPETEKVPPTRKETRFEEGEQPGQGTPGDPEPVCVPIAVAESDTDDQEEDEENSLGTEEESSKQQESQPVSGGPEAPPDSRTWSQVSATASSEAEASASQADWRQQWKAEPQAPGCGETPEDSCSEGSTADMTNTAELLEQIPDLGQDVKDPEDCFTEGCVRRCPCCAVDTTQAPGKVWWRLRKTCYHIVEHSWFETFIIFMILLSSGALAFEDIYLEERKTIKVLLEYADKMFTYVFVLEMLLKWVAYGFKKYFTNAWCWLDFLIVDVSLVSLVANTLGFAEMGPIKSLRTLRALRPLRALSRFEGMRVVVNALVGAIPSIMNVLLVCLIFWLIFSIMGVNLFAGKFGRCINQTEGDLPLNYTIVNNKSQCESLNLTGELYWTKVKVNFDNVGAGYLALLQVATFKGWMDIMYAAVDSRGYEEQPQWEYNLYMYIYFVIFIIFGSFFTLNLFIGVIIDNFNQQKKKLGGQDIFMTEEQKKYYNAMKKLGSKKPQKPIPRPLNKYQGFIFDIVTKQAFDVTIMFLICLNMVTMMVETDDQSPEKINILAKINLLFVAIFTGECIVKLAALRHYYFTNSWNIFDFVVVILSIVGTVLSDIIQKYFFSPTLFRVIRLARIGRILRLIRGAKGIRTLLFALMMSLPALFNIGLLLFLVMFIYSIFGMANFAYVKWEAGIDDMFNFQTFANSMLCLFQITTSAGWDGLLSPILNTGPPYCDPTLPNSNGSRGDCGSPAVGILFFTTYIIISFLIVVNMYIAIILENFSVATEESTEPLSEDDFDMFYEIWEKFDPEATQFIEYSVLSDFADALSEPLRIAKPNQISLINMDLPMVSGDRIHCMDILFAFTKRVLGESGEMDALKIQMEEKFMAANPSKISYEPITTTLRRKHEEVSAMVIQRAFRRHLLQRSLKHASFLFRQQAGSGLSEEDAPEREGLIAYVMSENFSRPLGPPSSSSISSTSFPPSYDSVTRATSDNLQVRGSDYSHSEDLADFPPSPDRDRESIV
measurement.notes: Inhibition of human NaV1.5 expressed in CHO cells by IonWorks assay
Format: cell-based
pIC50: −log10 of the molar value.
parameter: pIC50

Cc1nn(-c2ccccc2)nc1C(=O)N[C@@H]1COc2cccc(-c3ccncc3)c2C1 : < 4.50
COCCn1nc(C)c(C(=O)N[C@@H]2COc3cccc(-c4cccnc4)c3C2)n1 : < 4.50
Cc1cnc(-c2cccc3c2C[C@H](NC(=O)c2ccc(OCC(F)(F)F)nc2)CO3)cn1 : < 5.50

So for "Cc1nn(CC(C)C)nc1C(=O)N[C@@H]1COc2cccc(-c3cccnc3)c2C1" , the logged pIC50 turned out to be < 4.50
